assay_procedure: Selectivity index, ratio of CC50 for human HepG2 cells to EC50 for asexual blood-stage chloroquine-sensitive Plasmodium falciparum 3D7 infected in RBC
parameter_measured: selectivity ratio

CN(C)CCCN(CCCN(C)C)Cc1cccc2ccccc12: > 18
C=CCc1cc(CN2CCC3(CC2)CN(C)CCN3C)ccc1O: > 67

Query string: Return selectivity ratio for the following compound: "Oc1c(CN2CCCCC2)cc(CN2CCCCC2)nc1-c1ccccc1"
Result string: > 64

* * *

# EC50 per entry
Test system: Plasmodium falciparum
assay_procedure: Antiplasmodial activity against asexual blood-stage CQ-sensitive Plasmodium falciparum 3D7 infected in RBC assessed as parasite growth reduction incubated for 72 hrs by SybrGreen dye based analysis
Assay type: functional, organism-based
assay_setup: 3D7, Erythrocyte
# unit: nM | format: bare number

c1ccc(CCN2CCC(NC34CC5CC(CC(C5)C3)C4)CC2)cc1: 1780
CCc1nc(N)nc(N)c1-c1ccc(Cl)cc1: 39

Query string: Return EC50 for the following compound: "c1ccc2c(CCNC34CC5CC(CC(C5)C3)C4)c[nH]c2c1"
Result string: 11800

Query string: Return EC50 for the following compound: "COc1cc2nnc(NCC3(N(C)C)CCCCC3)nc2cc1OC"
Result string: 650
